test system: KM12; test: NCI tumour cell line growth inhibition, 48 h
Activity calls are given as the source filed them. Cut-off read from the data, not from the text of the source: active = GI50 up to about 1.1 µM and inactive = higher.
# valid calls are active, inactive; nothing else

Below, 2 molecules whose answers are already recorded.
Hello, I am checking results. What call was entered for S=C1SCC2CCCN12 (stereo not given) ?
inactive

# lookup: test call for `CCOC(=O)c1c(CN2CCOCC2)n(Cc2ccccc2)c2c1cc(O)c1nc(C)c(C)nc12`
inactive

Continuing:
Assay result, entry O=C(O)C1CCCN1Cc1ccc2c(c1)OCO2 (stereo not given) — outcome?
inactive

How did this test come out for `COc1ccc2c(C)c(Oc3c(Cl)c(Cl)c(O)c(C#N)c3C#N)oc2c1` ?
inactive

Which outcome was assigned to `Cc1cc2c(=O)cc(-c3ccc(O)cc3)oc2c(C(=O)O)c1C` in this test?
inactive

What outcome does the record of this test show for `Oc1cc(-c2ccc(Cl)cc2)cn2c1nc1ccccc12` ?
inactive

Identify the outcome logged in this assay for the molecule shown: CCOCCOC(=O)C1CCC(=O)N1CN(C(C)=O)c1cc(OC)ccc1OC (stereo not given)
inactive

---

test system: RPMI-8226; experiment: NCI tumour cell line growth inhibition, 48 h
Active and inactive are the calls of the source. No stated cut-off is given here; in the data, active = GI50 up to about 1.1 µM and inactive = higher.
Response enum: active, inactive

Would you please look over these solved cases?
Recorded test call requested for CC1(C)COC(c2c(-c3ccccc3)noc2C[S+]([O-])c2ccccc2)=N1 (stereo not given)
inactive

Check the results log: what was the call for Nc1nc(Br)nc2ncn(C3CC(O)C(CO)O3)c12 (stereo not given) ?
inactive

Look up the recorded call for `Oc1ccc2c(c1)-c1c(c3ccccc3n1CCN1CCOCC1)CC2` in this test.
inactive

---
What classification did `C=C(CN(CC(=C)C(=O)c1ccccc1)C(C)(C)C)C(=O)c1ccccc1` end up with in this test?
inactive

Recorded test outcome, item `Nc1nc2c(ncn2Cc2ccc(CO)cc2)c(=O)[nH]1`
inactive

Outcome logged for `Cc1cc(=O)n(-c2cc3cccccc-3n2)[nH]1` in this assay:
inactive

Outcome? CCCCCCCCCCCC(=O)N(CCCCCCCCCCC(=O)O)CC(O)C(O)C(OC1OC(CO)C(O)C(O)C1O)C(O)CO (stereo not given)
inactive

# lookup: test call for `CC(=O)c1cccn1/C=C(\OC(=O)OC(C)(C)C)c1ccc[nH]1`
inactive

Look up the recorded call for COC(=O)[C@@H]1CC(C(CN)c2cn(C(=O)OC(C)(C)C)c3ccccc23)C(=O)N1C(=O)OC(C)(C)C (stereo not given in full) in this test.
inactive

Per the assay record, what outcome was assigned to CCOC(=O)C1=C(C)N(Cc2ccc(Cl)cc2Cl)C2(O)C=CC(=O)C3C(=O)N(c4ccccc4)C(=O)C132 (stereo not given) ?
active

---

test system: MDA-N; assay: NCI tumour cell line growth inhibition, 48 h
Active and inactive are the calls of the source. Rule as the data show it: active = GI50 up to about 1.1 µM and inactive = higher.
I would appreciate it if you answered using one of these outcomes: active, inactive

Example entries begin here.
Hi, do you know how COc1cccc2c1C(=O)c1c(O)c3c(c(O)c1C2=O)C[C@@](O)(C(C)=O)C[C@@H]3OC1OC(C)C(O)C(N)C1Br (stereo partly drawn) came out in this test?
active

What did the test return for CCCCCCCCCCCC1NC(N)=NC(CCCO)=C1C(=O)OC (stereo not drawn) ?
inactive

What outcome does the record of this test show for O=C(O)c1cc(N(Cc2ccccc2O)Cc2cc(O)ccc2O)ccc1O [LAVENDUSTIN A] ?
inactive

Hello, I am checking results. What call was entered for `N#Cc1nc(-c2cnccn2)oc1N` ?
inactive

Which outcome was assigned to `CN(C)C(=S)C(Cl)(c1ccccc1)c1ccccc1` in this test?
inactive

---
# outcome recorded in this test, key = `CCCCc1ccc(-n2sc3ncc([N+](=O)[O-])cc3c2=O)cc1`
inactive

Hey, what did the test say about Nc1nc(N)c2nc(CNc3ccc(C(=O)NC(CCCNC(=O)c4ccccc4C(=O)O)C(=O)O)cc3)cnc2n1 (stereo not drawn) ?
active

Give the logged outcome of this assay for the following compound: `CC(=C\c1ccccc1)/C=C(\C#N)C(N)=O`
inactive

---

system: M19-MEL; assay: NCI tumour cell line growth inhibition, 48 h
Activity calls are given as the source filed them. No stated cut-off is given here; in the data, active = GI50 up to about 1.1 µM and inactive = higher.
Parameter: GI50

These recorded examples may help you get a feel for the data.
Bench note: what GI50 did `OC(c1ccccc1)(c1ccccc1)c1ccccn1` show?
> 100 µM (inactive)

# get_value(readout='GI50', item= `CCCSc1nc(COC(=O)NC)c(COC(=O)NC)n1C` )
88.1 µM (inactive)

GET /values?readout=GI50&item= `Cc1c2cnccc2c(C)c2c1c1ccccc1n2CCCCCCCl`
40 µM (inactive)

Others:
Need GI50, item CC1=NN(C(=O)c2ccc([N+](=O)[O-])cc2)C(=O)C1/N=N/c1ccccc1C(=O)O (stereo unspecified)
> 100 µM (inactive)

# query: GI50 of entry `CC(C)(C)C1=CC(=C(P(=O)(O)O)P(=O)(O)O)C=C(C(C)(C)C)C1=O`
> 50 µM (inactive)

Can you look up the measured GI50 of `O=CN/C=C/c1ccccc1` for me?
> 100 µM (inactive)

---

system: CAKI-1; assay: NCI tumour cell line growth inhibition, 48 h
Activity calls are given as the source filed them. No stated cut-off is given here; in the data, active = GI50 up to about 1.1 µM and inactive = higher.
Parameter: GI50

Consider the worked cases shown below.
Short answer please: GI50, CAKI-1, entry CC1=NNC(=O)C1C1CC(c2c[nH]c3ccccc23)=NNC1=O (stereo unspecified)
> 100 µM (inactive)

CAKI-1 / GI50 / `N=C(c1ccccc1)N(O)C1CCCCC1` : value?
> 100 µM (inactive)

Given the entry `COc1cc(/C=C2\N=C(c3ccccc3)N(c3cc4cc(Sc5ccccc5)ccc4[nH]3)C2=O)ccc1O` , what GI50 was observed with CAKI-1?
11.1 µM (inactive)

Any idea what GI50 came out for O=C1C=CC(=O)[C@H]2C3C=CC(C4C3C3(Cl)C(Cl)=C(Cl)[C@]4(Cl)C3(Cl)Cl)[C@@H]12 (stereo partly specified) on CAKI-1?
11.5 µM (inactive)

GET /values?readout=GI50&system=CAKI-1&item= `CNC(=S)N/N=C(\C)c1cc(OC)c(OC)cc1O`
> 100 µM (inactive)

API: value(readout= GI50, system= CAKI-1, query= `COC(=O)[C@H](CCSC)NC(=O)N[C@H](C)c1ccccc1` )
> 100 µM (inactive)

// below: GI50 requested for another molecule
Param readout = GI50; param system = CAKI-1; param query = `[N-]=[N+]=Nc1c([N+](=O)[O-])c(=O)n(-c2ccccc2)c2ccccc12` ; response: value
21.5 µM (inactive)

---

tested on: UACC-62; experiment: NCI tumour cell line growth inhibition, 48 h
Activity calls are given as the source filed them. Rule as the data show it: active = GI50 up to about 1.1 µM and inactive = higher.
Allowed answers: active, inactive

Would you please look over these solved cases?
Tell me the recorded outcome of this test for CCCOC(=O)C1C2CCC(O2)C1C(=O)O (stereo not given) .
inactive

For this molecule, state the assay outcome: `CCn1c(=O)c2nc(SC)sc2n(-c2ccccc2)c1=S`
inactive

More entries:
Which outcome was assigned to `CCOC(=O)c1cc2c3c(c(O)c(OC)c2s1)N(C(=O)c1cc2c4c(c(O)c(OC)c2s1)N(C(C)=O)CC4)CC3` in this test?
inactive

Outcome logged for `COc1cccc(NC(=O)CC(=O)NNCC(=O)Nc2nnc(-c3ccc(N(CCC#N)S(=O)(=O)c4ccccc4)cc3)s2)c1` in this assay:
inactive

Hi, do you know how `Cc1cc(-c2ccccc2)nc(Nc2cc3ccccc3[nH]2)n1` came out in this test?
inactive

Give the logged outcome of this assay for the following molecule: `CSc1c(C(N)=S)c(N)nn1-c1ccccc1`
inactive

Query: recorded result category for `CN(C(=O)c1ccc(Cl)cc1)C(=S)N1CCN(c2ccccc2)CC1` in this test
inactive

---

// reported GI50 per item
test system: SR; assay: NCI tumour cell line growth inhibition, 48 h
Activity calls are given as the source filed them. Cut-off read from the data, not from the text of the source: active = GI50 up to about 1.1 µM and inactive = higher.

Consider the following illustrative entries.
Request body: readout GI50, system SR, query `CSc1c(C(N)=S)c(N)nn1-c1ccccc1` . Return the value.
> 100 µM (inactive)

Tell me reported GI50 for CC(C)[C@@H]1ON1C(C)c1ccccc1 (stereo partly drawn) , tested with SR.
> 100 µM (inactive)

What measured GI50 is associated with `Cc1cn(CC2=NCCN2)c(=O)[nH]c1=O` on SR?
> 100 µM (inactive)

Turning now to a further compound:
Param readout= GI50; system= SR; entry= `Nc1nc2[nH]cnc2c(=O)[nH]1` ; returns value.
> 100 µM (inactive)

---

system: Malme-3M; assay: NCI tumour cell line growth inhibition, 48 h
Calls of active or inactive are those of the source. No stated cut-off is given here; in the data, active = GI50 up to about 1.1 µM and inactive = higher.
Please state which outcome applies, choosing from T = active, F = inactive

# fetch the recorded call for `N#Cc1nc(-c2ccco2)oc1N` here
F

Recorded test call requested for CN1C(=O)c2ccccc2NC(=O)C12O[C@@H]2c1ccccc1 (some centres not stated)
F

Returns: the outcome recorded for O=C(CC(=O)N1N=C(c2ccccc2)C(/N=N/c2ccc(C(=O)O)cc2)C1=O)Nc1ccc(F)cc1 (configuration not stated) in this assay.
F

Per the assay record, what outcome was assigned to `Oc1ccc2c(c1)-c1c(c3ccccc3n1CCN1CCOCC1)CC2` ?
F

Entry `CC(C)OC(=O)Nc1c([N+](=O)[O-])cc(C(F)(F)F)cc1[N+](=O)[O-]` : call = ?
F

New cases:
Recorded test outcome, item OCCSCC(O)Cn1cnc2c(O)nc(Nc3ccccc3)nc21 (configuration not stated)
F

Identify the outcome logged in this assay for the compound shown: `Sc1nnc(COc2ccc(Cl)cc2)n1-c1ccccc1`
F

Given CCCCCCCCCCCCCCCC(=O)OCC1OC(N2C(=O)/C(=N\NC(N)=S)c3ccc([N+](=O)[O-])cc32)C(OC(C)=O)C1OC(C)=O (configuration not stated) , state the outcome it received in this test.
F

Tell me the recorded outcome of this test for CCCCCCC(=O)C/C(=N/NC(N)=S)C(=O)NC1C2CC3CC(C2)CC1C3 (configuration not stated) .
F

How did this test come out for `COc1ccc(-n2c(N)c(C#N)[nH]c2=O)cc1` ?
F

Would you mind telling me which call this test gave `O=C(COc1ccc(OCC(=O)N2C(=O)CC(=O)N(c3ccccc3)C2=S)cc1)N1C(=O)CC(=O)N(c2ccccc2)C1=S` ?
F

Could you kindly confirm the outcome this assay logged for `CCN(CC)c1ncnc2c1ncn2CCNC(CO)(CO)CO` ?
F

Each compound tested received a call. Report the one for O=C(O)C1CC(C2CCCCN2)CN2CCCCC12 (configuration not stated) .
F
